Target: T1, CAPRIN-1 protein expressed on the membrane surface of human cancer cells (human, UniProt Q14444 2-709)
T1 sequence (looked up): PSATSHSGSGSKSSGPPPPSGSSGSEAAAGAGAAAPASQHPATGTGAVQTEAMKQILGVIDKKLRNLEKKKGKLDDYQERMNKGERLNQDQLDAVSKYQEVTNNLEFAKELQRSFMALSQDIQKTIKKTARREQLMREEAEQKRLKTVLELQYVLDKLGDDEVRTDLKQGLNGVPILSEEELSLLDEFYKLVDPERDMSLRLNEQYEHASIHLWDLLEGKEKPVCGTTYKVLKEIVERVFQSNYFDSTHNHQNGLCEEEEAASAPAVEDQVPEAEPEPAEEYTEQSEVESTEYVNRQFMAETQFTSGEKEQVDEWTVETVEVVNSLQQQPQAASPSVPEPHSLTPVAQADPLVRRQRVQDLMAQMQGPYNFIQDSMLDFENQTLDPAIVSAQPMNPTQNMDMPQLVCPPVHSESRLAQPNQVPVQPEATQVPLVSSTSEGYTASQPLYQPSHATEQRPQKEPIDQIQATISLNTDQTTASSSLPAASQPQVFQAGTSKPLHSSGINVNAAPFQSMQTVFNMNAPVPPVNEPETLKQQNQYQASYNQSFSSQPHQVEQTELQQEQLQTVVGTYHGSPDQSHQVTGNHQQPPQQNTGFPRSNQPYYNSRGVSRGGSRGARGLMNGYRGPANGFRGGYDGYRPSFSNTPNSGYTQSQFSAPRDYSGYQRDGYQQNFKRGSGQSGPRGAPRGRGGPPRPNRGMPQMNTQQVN
Assay: cell-based or functional assay
Here the recorded ADCC cytotoxic activity (51Cr release) on NT/D1 is given for each entry.

binder: human-rabbit chimeric anti-CAPRIN-1 antibody (antibody, V domains shown) VH: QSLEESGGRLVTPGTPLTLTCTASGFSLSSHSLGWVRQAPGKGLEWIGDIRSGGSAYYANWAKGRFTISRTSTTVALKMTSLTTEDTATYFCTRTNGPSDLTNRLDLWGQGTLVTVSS VL: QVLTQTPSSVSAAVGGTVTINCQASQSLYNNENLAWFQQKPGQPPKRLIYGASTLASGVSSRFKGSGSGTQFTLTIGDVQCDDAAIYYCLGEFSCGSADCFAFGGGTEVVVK
observed_result: ≥ 25%

Q. Output measured ADCC cytotoxic activity (51Cr release) on NT/D1 for this item: humanized antibody #7 (antibody, V domains shown) VH: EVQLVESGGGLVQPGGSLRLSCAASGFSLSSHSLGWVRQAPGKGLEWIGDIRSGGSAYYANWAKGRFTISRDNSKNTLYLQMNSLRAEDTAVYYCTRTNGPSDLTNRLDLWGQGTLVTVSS VL: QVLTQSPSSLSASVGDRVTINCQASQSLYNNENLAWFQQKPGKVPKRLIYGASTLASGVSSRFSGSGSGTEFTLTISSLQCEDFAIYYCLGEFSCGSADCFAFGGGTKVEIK
A. ≥ 37%

Q. Output ADCC cytotoxic activity (51Cr release) on NT/D1 of humanized antibody #0 (antibody, V domains shown) VH: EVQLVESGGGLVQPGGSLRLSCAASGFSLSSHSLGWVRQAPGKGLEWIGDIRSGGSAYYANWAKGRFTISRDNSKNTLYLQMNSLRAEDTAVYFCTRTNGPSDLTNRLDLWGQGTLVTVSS VL: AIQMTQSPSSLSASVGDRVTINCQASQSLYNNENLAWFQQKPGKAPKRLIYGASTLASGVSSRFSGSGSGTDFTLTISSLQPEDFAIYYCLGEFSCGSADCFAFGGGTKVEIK
A. ≥ 25%
